# Tested on: rabbit skeletal myofibrils (approximately 90% fast fibers)
# protocol: Activation of fast skeletal myofibrils (PUMA coupled-enzyme ATPase assay, AC1.4)
# Assay type: biochemical
# test-settings: Table 2; concentration at which the compound increased enzymatic activity by 40%; calcium at pCa25
experimental-readout: Mean AC1.4

* NC(=O)c1cccc(-c2nsc(NCC(O)c3ccc(F)cc3)n2)c1 (centres unmarked) | D (D=>20 uM)
* Fc1ccc(CCNc2nc(Cc3ccc(F)cc3)ns2)cc1 | B (B=1-10 uM)
* CCc1nsc(NCC(C)(C)c2ccc(F)cc2)n1 | B (B=1-10 uM)
* CC(C)(CNc1nc(CCCNC(=O)CO)ns1)c1ccc(F)cc1 | B (B=1-10 uM)
* CC(C)(CNc1nc(CCCNC(=O)CN)ns1)c1ccc(F)cc1 | B (B=1-10 uM)
* CC(C)(CNc1nc(-c2ccc3c(N)n[nH]c3c2)ns1)c1ccc(F)cc1 | A (A=<1 uM)
* CC(=O)NCCCc1nsc(NCC(C)(C)c2ccc(F)cc2)n1 | C (C=10-20 uM)
* CC(C)CCNc1nc(Cc2ccc(F)cc2)ns1 | D (D=>20 uM)
* C[C@H](CNc1nc(-c2cncc(C#N)c2)ns1)c1ccc(F)cc1 | C (C=10-20 uM)
* CC(C)(CNc1nc(-c2ccc(C(N)=O)cc2)ns1)c1ccc(F)cc1 | A (A=<1 uM)
* C[C@H](CNc1nc(-c2cncc(C(N)=O)c2)ns1)c1ccc(F)cc1 | B (B=1-10 uM)

* * *

# Tested on: rabbit skeletal myofibrils (approximately 90% fast fibers)
# protocol: Activation of fast skeletal myofibrils (PUMA coupled-enzyme ATPase assay, AC1.4)
# Type: biochemical
# test-settings: Table 4; concentration at which the compound increased enzymatic activity by 40%; calcium at pCa25
experimental-readout: Mean AC1.4

* NC(=O)c1ccc2nc(NCC3(c4ncccc4F)CCC3)sc2c1 | B (B=1-10 uM)
* NC(=O)c1ccc2nc(NCC3(c4ccccn4)CCC3)sc2c1 | B (B=1-10 uM)
* CCOC(=O)c1ccc2nc(NCC(C)(C)c3ccc(F)cc3)sc2c1 | B (B=1-10 uM)
* CC(C)(CNc1nc2ccc(C(=O)O)cc2s1)c1ccc(F)cc1 | C (C=10-20 uM)
* CC(C)(CNc1nc2ccc(C#N)cc2s1)c1ccc(F)cc1 | B (B=1-10 uM)
* COc1cccnc1C1(CNc2nc3ccc(C(N)=O)cc3s2)CCC1 | B (B=1-10 uM)
* COc1ccc2nc(NCC(C)(C)c3ccc(F)cc3)sc2c1 | A (A=<1 uM)
* NC(=O)c1cccc2nc(NC[C@]3(c4ncccc4F)C[C@H](F)C3)sc12 | D (D=>20 uM)
* CN(C)C(=O)c1ccc2nc(NCC(C)(C)c3ccc(F)cc3)sc2c1 | B (B=1-10 uM)
* CC(C)(CNc1nc2cc(C(N)=O)ccc2s1)c1ccc(F)cc1 | B (B=1-10 uM)
* CC(C)(CNc1nc2cccc(C#N)c2s1)c1ccc(F)cc1 | B (B=1-10 uM)
* Fc1ccc(C2(CNc3nc4ccc(Cl)cc4s3)CCC2)cc1 | A (A=<1 uM)
* CC(C)(CNc1nc2c(Cl)cccc2s1)c1ccc(F)cc1 | A (A=<1 uM)
* COc1cccnc1C1(CNc2nc3ccc(Cl)cc3s2)CCC1 | B (B=1-10 uM)
* Fc1cccnc1C1(CNc2nc3ccccc3s2)CCC1 | C (C=10-20 uM)
* CC(C)(CNc1nc2cc(Cl)ccc2s1)c1ccc(F)cc1 | B (B=1-10 uM)
* CC(C)(CNc1nc2cc(C#N)ccc2s1)c1ccc(F)cc1 | B (B=1-10 uM)
* NC(=O)c1ccc2nc(NCCc3ccc(F)cc3)sc2c1 | B (B=1-10 uM)
* N#Cc1ccc2nc(N)sc2c1 [2-aminobenzo[d]thiazole-6-carbonitrile] | D (D=>20 uM)
* NC(=O)c1cc(Cl)c2nc(NCC3(c4ncccc4F)CCC3)sc2c1 | A (A=<1 uM)
* COc1cccnc1C1(CNc2nc3ccc(C#N)cc3s2)CCC1 | D (D=>20 uM)
* N#Cc1ccc2nc(NCCc3ccc(F)cc3)sc2c1 | D (D=>20 uM)
* Fc1cccnc1C1(CNc2nc3ccc(Cl)cc3s2)CCC1 | B (B=1-10 uM)
* CC(C)(CNc1nc2c(C#N)cccc2s1)c1ccc(F)cc1 | A (A=<1 uM)
* CC(C)(CNc1nc2cccc(Cl)c2s1)c1ccc(F)cc1 | B (B=1-10 uM)
* CC(C)(CNc1nc2ccccc2s1)c1ccc(F)cc1 | B (B=1-10 uM)
* CC(C)(CNc1nc2cccc(C(N)=O)c2s1)c1ccc(F)cc1 | B (B=1-10 uM)
* CC(C)(CNc1nc2c(C(N)=O)cccc2s1)c1ccc(F)cc1 | C (C=10-20 uM)
* COc1ccc(C2(CNc3nc4ccc(C#N)cc4s3)CCC2)nc1 | D (D=>20 uM)
* N#Cc1ccc2sc(NC[C@]3(c4ncccc4F)C[C@H](F)C3)nc2c1 | C (C=10-20 uM)
* COc1cccc(C2(CNc3nc4ccc(C#N)cc4s3)CCC2)n1 | B (B=1-10 uM)
* CC(C)(CNc1nc2c(Cl)cc(C#N)cc2s1)c1ccc(F)cc1 | A (A=<1 uM)
* N#Cc1ccc2nc(NCC3(c4ccccn4)CCC3)sc2c1 | C (C=10-20 uM)
* CC(C)(CNc1nc2ccc(Cl)cc2s1)c1ccc(F)cc1 | A (A=<1 uM)
* NC(=O)c1ccc2sc(NC[C@]3(c4ncccc4F)C[C@H](F)C3)nc2c1 | C (C=10-20 uM)
* NC(=O)c1ccc(Cl)c2nc(NC[C@]3(c4ncccc4F)C[C@H](F)C3)sc12 | B (B=1-10 uM)
* COc1ccc(C2(CNc3nc4ccc(Cl)cc4s3)CCC2)nc1 | B (B=1-10 uM)
* N#Cc1ccc2nc(NCC3(c4ccc(F)cc4)CCC3)sc2c1 | A (A=<1 uM)
* N#Cc1ccc2nc(NCC3(c4ncccc4F)CCC3)sc2c1 | B (B=1-10 uM)
* CNC(=O)c1ccc2nc(NCC(C)(C)c3ccc(F)cc3)sc2c1 | B (B=1-10 uM)
* N#Cc1cc(C(N)=O)cc2sc(NCC3(c4ncccc4F)CCC3)nc12 | A (A=<1 uM)
* COc1ccc(C2(CNc3nc4ccc(C(N)=O)cc4s3)CCC2)nc1 | C (C=10-20 uM)
* CC(C)(CNc1nc2c(C#N)cc(C(N)=O)cc2s1)c1ccc(F)cc1 | A (A=<1 uM)
* CC(C)(O)c1ccc2nc(NCC(C)(C)c3ccc(F)cc3)sc2c1 | A (A=<1 uM)
* CC(C)(CNc1nc2ccc(C(N)=O)cc2s1)c1ccc(F)cc1 | A (A=<1 uM)
* NC(=O)c1cccc2sc(NC[C@]3(c4ncccc4F)C[C@H](F)C3)nc12 | D (D=>20 uM)
